// molecules with reported IC50 on Dipeptidyl peptidase 9 (Homo sapiens, UniProt Q86TI2), multi-publication

molecule: C[C@@]1(NCC(=O)N2C[C@@H](F)C[C@H]2C#N)C[C@H]2C[C@@H](OCC3CC3)C[C@H]2C1
rel: =
IC50, µM: 0.031
//
molecule: C[C@@H]1CN(c2ccc3nccc(C(=O)NCC(=O)N4CSC[C@H]4C#N)c3c2)CCO1
rel: =
IC50, µM: 2.5
//
molecule: COC(=O)[C@H](Cc1ccccc1)NC(=O)c1csc2c(=O)n(Cc3ccccc3C#N)c(N3CCC[C@@H](N)C3)nc12
rel: =
IC50, µM: 53
//
molecule: C[C@@H]1CN(c2ccc3nccc(C(=O)NCC(=O)N4CSC[C@H]4C#N)c3c2)C[C@H](C)O1
rel: =
IC50, µM: 1.5
//
molecule: CC(C)CCNC(=O)c1csc2c(=O)n(Cc3ccccc3C#N)c(N3CCC[C@@H](N)C3)nc12
rel: =
IC50, µM: 407
//
molecule: N#Cc1ccccc1Cn1c(N2CCC[C@@H](N)C2)nc2cc(C(=O)NC3CC3)sc2c1=O
rel: =
IC50, µM: 266
//
molecule: N#Cc1ccccc1Cn1c(N2CCC[C@@H](N)C2)nc2cc(C(=O)N3CCS(=O)(=O)CC3)sc2c1=O
rel: =
IC50, µM: 307
//
molecule: CN1CCN(C(=O)c2csc3c(=O)n(Cc4ccccc4C#N)c(N4CCC[C@@H](N)C4)nc23)CC1
rel: =
IC50, µM: 94.5
//
molecule: N#Cc1ccccc1Cn1c(N2CCC[C@@H](N)C2)nc2cc(C(=O)NCc3ccccc3F)sc2c1=O
rel: =
IC50, µM: 91.8
//
molecule: C[C@@]1(NCC(=O)N2C[C@@H](F)C[C@H]2C#N)C[C@H]2CC(C#N)C[C@H]2C1 (stereo partly drawn)
rel: =
IC50, µM: 0.02
//
molecule: N#Cc1ccccc1Cn1c(N2CCC[C@@H](N)C2)nc2c(C(=O)NCC3CC3)csc2c1=O
rel: =
IC50, µM: 66.8
//
molecule: CCCCNC(=O)c1cc2nc(N3CCC[C@@H](N)C3)n(Cc3ccccc3C#N)c(=O)c2s1
rel: =
IC50, µM: 78.5
//
molecule: COC(=O)[C@@H]1CCCN1C(=O)c1cc2nc(N3CCC[C@@H](N)C3)n(Cc3ccccc3C#N)c(=O)c2s1
rel: =
IC50, µM: 172
//
molecule: COCCCNC(=O)c1cc2nc(N3CCC[C@@H](N)C3)n(Cc3ccccc3C#N)c(=O)c2s1
rel: =
IC50, µM: 159
//
molecule: Cc1ccc2c(C(=O)NCC(=O)N3[C@H](C#N)C[C@@H]4C[C@@H]43)ccnc2c1
rel: >
IC50, µM: 0.01

###

// compounds with reported pIC50 on Dipeptidyl peptidase 9 (Homo sapiens, UniProt Q86TI2), multi-publication
pIC50: −log10 of the molar value.
readout.name: pIC50

mol.smiles: C[C@H]1CN(c2ccc3nccc(C(=O)NCC(=O)N4CSC[C@H]4C#N)c3c2)CCO1
readout.name: pIC50
numeric.result: 5.85

mol.smiles: CC(C)NC(=O)c1cc2nc(N3CCC[C@@H](N)C3)n(Cc3ccccc3C#N)c(=O)c2s1
readout.name: pIC50
numeric.result: 3.78

mol.smiles: CC(=O)O[C@@H]1C[C@@H]2C[C@@](C)(NCC(=O)N3CCC[C@H]3C#N)C[C@@H]2C1
readout.name: pIC50
numeric.result: 6.62

mol.smiles: CCO[C@@H]1C[C@@H]2C[C@@](C)(NCC(=O)N3C[C@@H](F)C[C@H]3C#N)C[C@@H]2C1
readout.name: pIC50
numeric.result: 7.57

mol.smiles: Cc1ccc(CNC(=O)c2cc3nc(N4CCC[C@@H](N)C4)n(Cc4ccccc4C#N)c(=O)c3s2)cc1
readout.name: pIC50
numeric.result: 4.27

mol.smiles: COCCNC(=O)c1csc2c(=O)n(Cc3ccccc3C#N)c(N3CCC[C@@H](N)C3)nc12
readout.name: pIC50
numeric.result: 4.03

mol.smiles: CC(C)CNC(=O)c1csc2c(=O)n(Cc3ccccc3C#N)c(N3CCC[C@@H](N)C3)nc12
readout.name: pIC50
numeric.result: 3.65
